Entries and their MIC Strep. Pneumoniae AUCC 479 penS, macS values follow.
test system: S. pneumoniae AUCC479, macrolide & penicillin sensitive; assay: Minimum inhibitory concentration (MIC), broth microdilution, AUCC479; format: cell-based, Streptococcus pneumoniae

// worked examples, MIC Strep. Pneumoniae AUCC 479 penS, macS included
{"COMPOUND": "CC[C@H]1OC(=O)[C@@](C)(F)C(=O)[C@H](C)[C@@H](O[C@@H]2O[C@H](C)C[C@H](N(C)C)[C@H]2O)[C@](C)(OC)C[C@@H](C)C(=O)[C@H](C)[C@H]2N(CCCCn3cc(-c4cccc(N)c4)nn3)C(=O)O[C@]12C [solithromycin, reference compound]", "RESULT": "0.004 to 0.015 µg/mL"}
{"COMPOUND": "CC[C@H]1OC(=O)[C@H](C)C(=O)[C@H](C)[C@@H](O[C@@H]2O[C@H](C)C[C@H](N(C)C)[C@H]2O)[C@](C)(OC/C=C/c2cnc3ccccc3c2)C[C@@H](C)C(=O)[C@H](C)[C@H]2N(CC#N)C(=O)O[C@]12C [Compound 13H]", "RESULT": "0.008 to 0.015 µg/mL"}

Retrieve MIC Strep. Pneumoniae AUCC 479 penS, macS measured for CCC1OC(=O)C(C)C(=O)C(C)C(OC2OC(C)CC(N(C)C)C2O)C(C)(OCC=Cc2cnc3ccccc3c2)CC(C)C(=O)C(C)C2N(CC3CCN(C)C3)C(=O)OC12C (stereo not drawn) [Compound 13N] and print it.
0.03 µg/mL

Note down MIC Strep. Pneumoniae AUCC 479 penS, macS recorded for CC[C@H]1OC(=O)[C@H](C)C(=O)[C@H](C)[C@@H](O[C@@H]2O[C@H](C)C[C@H](N(C)C)[C@H]2O)[C@](C)(OC/C=C/c2cnc3ccccc3c2)C[C@@H](C)C(=O)[C@H](C)[C@H]2N(CCOC)C(=O)O[C@]12C [Compound 13E]
0.03 to 0.06 µg/mL

Report measured MIC Strep. Pneumoniae AUCC 479 penS, macS; entry is CC[C@H]1OC(=O)[C@H](C)[C@@H](O[C@H]2C[C@@](C)(OC)[C@@H](O)[C@H](C)O2)[C@H](C)[C@@H](O[C@@H]2O[C@H](C)C[C@H](N(C)C)[C@H]2O)[C@](C)(O)C[C@@H](C)C(=O)[C@H](C)[C@@H](O)[C@]1(C)O [erythromycin, reference compound]
0.03 to 0.06 µg/mL

Look up MIC Strep. Pneumoniae AUCC 479 penS, macS of CC[C@H]1OC(=O)[C@H](C)C(=O)[C@H](C)[C@@H](O[C@@H]2O[C@H](C)C[C@H](N(C)C)[C@H]2O)[C@](C)(OC/C=C/c2cnc3ccccc3c2)C[C@@H](C)C(=O)[C@H](C)[C@H]2N(CC3CCN(C)CC3)C(=O)O[C@]12C [Compound 13L] and report it.
0.03 µg/mL

Source: patent US10717757B2
